Data origin, for the record: PubChem BioAssay

- METHOD NOTES: DUSP6 inhibitors restoring Erk phosphorylation by chemical complementation, primary imaging in DUSP6-transfected HeLa (AID 609)
- EXPERIMENTAL SETUP: HeLa MKP-3 transfected, phospho-Erk imaging KS statistic; measured here: nuclear c-Myc green intensity z-score; at 10 µM; cells stimulated with TPA for 15 min
Overview of recorded z-score for various molecules
The answer should be a number; do not append a unit.

Answered cases to consult:
CCc1ccccc1NC(=O)CSC1=C(C#N)C(c2ccc(O)c(OC)c2)C2=C(CCCC2=O)N1 (stereo not drawn)    -0.0258
Cn1cc(Br)cc2nc(C(F)(F)F)nc1-2    -1.14
CCCCCSc1nc(O)cc(=O)[nH]1    1.21
CC(=O)[C@H]1[C@H](C#N)C[C@H]2[C@@H]3CC=C4C[C@@H](O)CC[C@]4(C)[C@H]3CC[C@@]21C    -0.917
COc1ccc2c(c1OC)C(=O)OC2C1c2c(cc3c(c2OC)OCO3)CCN1C (stereo not drawn)    -0.813

State the recorded z-score for this entry: CO[C@H]1C[C@@H]2CC[C@@H](C)[C@@](O)(O2)C(=O)C(=O)N2CCCC[C@H]2C(=O)O[C@H]([C@H](C)C[C@@H]2CC[C@@H](O)[C@H](OC)C2)CC(=O)[C@H](C)C=C(C)[C@@H](O)[C@@H](OC)C(=O)[C@H](C)C[C@H](C)C=CC=CC=C1C
0.453

Quick one: z-score for CC(C)CNC(=O)c1c(N)n(/N=C/c2ccccn2)c2nc3ccccc3nc12 ?
-0.805

Fill in: z-score of Cc1nc2sc3c(NCc4ccco4)ncnc3c2c2c1COC(C)(C)C2 is ___
-0.424
